// reported RP-LC retention time per item
- protocol_details: gradient 5% acetonitrile 3 min, to 50% in 2 min, to 85% in 15 min, held 3 min, 100 µL/min
- study_conditions: column: Zorbax Extend-C18 2.1 x 50 mm; eluents: water / acetonitrile, 0.1% formic acid
Provide the reading as a plain figure in s.

Here is how some molecules turned out for RP-LC retention time.
>>> df
                                   molecule  unit_annotation  experimental_value
0  O=C(Nc1cccc2ccc(-n3ccnc3)nc12)C1COc2ccccc2O1 (stereo not given)                s                 674
1  CCOC(=O)[C@@H](C)NC(=O)C1CCN(S(=O)(=O)c2ccc(C)cc2)CC1                s                 787
2  COc1ccc(CN(C)Cc2cc(=O)c3cc(C)ccc3[nH]2)cc1                s                 603

Lookup result for O=S(=O)(c1ccccc1)N1CCc2nc(-c3ccc(Cl)cc3)ncc2C1 ; measured RP-LC retention time: 1170

RP-LC retention time measured on Cc1ccc(NC(=O)CCC(=O)N2CCSc3nc(C)cc(C)c32)cc1 = 717

---

- protocol_details: gradient 5% acetonitrile 3 min, to 50% in 2 min, to 85% in 15 min, held 3 min, 100 µL/min
- study_conditions: column: Zorbax Extend-C18 2.1 x 50 mm; eluents: water / acetonitrile, 0.1% formic acid
Use 1000 s as the dividing line for RP-LC retention time, with the line itself on the T side and lower values as F.

In [3]: df
Out[3]:
                                   molecule  category
0  CC(C)CC(=O)Nc1cc2c(cc1S(=O)(=O)c1ccc(F)cc1)n(C)c(=O)n2C         F

Query string: Item Cc1ccc(CNC(=O)c2[nH]c(C)c(S(=O)(=O)N3CCCC3)c2C)cc1 with RP-LC retention time of 1000 s or above?
Result string: F

Query string: Reported RP-LC retention time at or above 1000 s? COC(=O)c1ncn2c1C(=O)N(c1ccc(C)cc1C)C(C)(C(=O)NCc1ccccc1)C2 (centres undefined)
Result string: F

Query string: # check: RP-LC retention time of Cc1nn(-c2ccc(-c3ccccc3)nn2)c(C)c1S(=O)(=O)N1CCCC(C)C1 (centres undefined) is greater than or equal to 1000 s
Result string: T

Query string: Does the reported RP-LC retention time for CCCn1ccc2oc(C)c(C(=O)NCc3ccccc3Br)c2c1=O fall at or above the 1000 s mark?
Result string: T

Query string: Dear colleague, could you confirm whether CCn1cc(CN2CCC(C(=O)NCCCN3CCOCC3)CC2)c2cc(Cl)ccc21 has RP-LC retention time at or above 1000 s?
Result string: F

Query string: Hi, just wondering whether CCOC(=O)c1cccc(NC(=O)Cn2c(=O)c(CCC(=O)NC)nc3ccccc32)c1 shows RP-LC retention time of 1000 s or higher.
Result string: F

Query string: Threshold query (RP-LC retention time >= 1000 s) on CCOc1cc(=O)n2c(c1C(=O)Nc1ccc(Cl)cc1C)CCCC2
Result string: F

Query string: Reported RP-LC retention time at or above 1000 s? CCn1cc(C(=O)N2CCc3ccccc32)c2nn(-c3ccccc3)c(=O)c-2c1
Result string: F

Query string: Item Cn1nc(C(=O)N2CCCC(C(=O)Nc3ccccc3)C2)c2c1CCN(C(=O)C1CCCC1)C2 (centres undefined) with RP-LC retention time of 1000 s or above?
Result string: F

Query string: Identify whether the reported RP-LC retention time of the following molecule is 1000 s or greater: CCc1ccc(NC(=O)NCC2CCOCC2)cc1
Result string: F

Query string: Does the reported RP-LC retention time for CCOC(=O)N1CCN(C(=O)Cc2c(C)nn(-c3nc(-c4ccc(Cl)cc4)cs3)c2C)CC1 fall at or above the 1000 s mark?
Result string: T

Query string: Answer whether RP-LC retention time of COc1ccc(-c2noc(-c3ccc(=O)n(Cc4ccccn4)c3)n2)cc1OC is greater than or equal to 1000 s.
Result string: F

Query string: Does the molecule CCN1C(=O)c2cc(S(=O)(=O)Nc3cc(C)cc(C)c3)ccc2Oc2cccnc21 have recorded RP-LC retention time that is 1000 s or more?
Result string: T

Query string: # bool: RP-LC retention time of CCc1nncn1C1CCN(S(=O)(=O)c2cccc(C)c2)CC1 >= 1000 s
Result string: F

Source listed as the METLIN SMRT retention time set (Domingo-Almenara et al. 2019).
